ASSAYED TARGET: enolase (AbEnolase) (Acinetobacter baumannii, UniProt A3M5Y1)
Construct: wild-type enolase gene in pET-30a(+) with an N-terminal His6 tag, purified recombinant
Sequence (A3M5Y1 whole entry): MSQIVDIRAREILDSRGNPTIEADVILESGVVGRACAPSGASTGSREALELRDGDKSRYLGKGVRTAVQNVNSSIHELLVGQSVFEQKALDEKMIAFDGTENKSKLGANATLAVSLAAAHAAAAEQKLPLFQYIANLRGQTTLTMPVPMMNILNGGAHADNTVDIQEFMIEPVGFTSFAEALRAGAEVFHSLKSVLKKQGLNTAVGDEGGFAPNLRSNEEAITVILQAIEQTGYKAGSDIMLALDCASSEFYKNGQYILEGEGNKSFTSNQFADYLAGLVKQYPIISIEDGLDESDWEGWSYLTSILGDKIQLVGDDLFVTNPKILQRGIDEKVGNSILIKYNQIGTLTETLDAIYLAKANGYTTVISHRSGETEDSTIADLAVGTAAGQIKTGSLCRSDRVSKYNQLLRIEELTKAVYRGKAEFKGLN
ASSAY COMMENT: isothermal titration calorimetry ([…] °C, […] protein, […] ENOblock, single-site model, n = […])
pKd: −log10 of the molar value.
METRIC NAME: pKd

> print(dat)
                                   compound  reported.result
1  NCCOCCOCCNC(=O)Cc1ccc(Nc2nc(NCc3ccc(F)cc3)nc(NCC3CCCCC3)n2)cc1 [ENOblock]             5.54

----------
Test system: A. baumannii Ab ATCC 17978
Construct: ATCC 17978
ASSAY COMMENT: microbe, parasite or virus in culture
Design: species or system A. baumannii ATCC 17978; Bacterial growth inhibition, OD600, dose-response in 384-well plates, AC50
MEASUREMENT SETUP: Acinetobacter baumannii, ATCC17978, 24 h
Rule: AC50 below 40 µM gives 1, anything at or above gives 0.

> print(dat)
                                    molecule              assayed.target  class.assignment
 1  Oc1c(I)cc(I)c2cccnc12 [EOS100343, DIIODOHYDROXYQUINOLINE]  A. baumannii Ab ATCC 17978                 0
 2            Cc1nc2c(=O)n(C)c(=O)nc-2n(C)n1  A. baumannii Ab ATCC 17978                 1
 3                     NC(=S)N/N=C/c1ncccc1N  A. baumannii Ab ATCC 17978                 0
 4  NCCOCCOCCNC(=O)Cc1ccc(Nc2nc(NCc3ccc(F)cc3)nc(NCC3CCCCC3)n2)cc1 [EOS100979, AP-III-A4(ENOBLOCK)]  A. baumannii Ab ATCC 17978                 1
 5  Oc1c(Cl)cc(Cl)c(Cl)c1Cc1c(O)c(Cl)cc(Cl)c1Cl  A. baumannii Ab ATCC 17978                 1
 6                Cc1ccc2c(Cl)cc(Cl)c(O)c2n1  A. baumannii Ab ATCC 17978                 0
 7  C[C@H]1CO[C@@H]2Cn3cc(C(=O)NCc4ccc(F)cc4F)c(=O)c(O)c3C(=O)N12  A. baumannii Ab ATCC 17978                 0
 8  CCN1CCN(C(c2ccc(C(F)(F)F)cc2)c2ccc3cccnc3c2O)CC1 (stereo not shown)  A. baumannii Ab ATCC 17978                 1
 9            c1ccc(-c2cccc(-c3ccccn3)n2)nc1  A. baumannii Ab ATCC 17978                 1
10                   Oc1c(Cl)cc(Cl)c2cccnc12  A. baumannii Ab ATCC 17978                 1
11          Cc1c2ccncc2c(C)c2c1[nH]c1ccccc12  A. baumannii Ab ATCC 17978                 0
12                           Oc1cccc2cccnc12  A. baumannii Ab ATCC 17978                 0
13  O=[N+]([O-])c1ccc(Sc2cccc[n+]2[O-])c2nonc12  A. baumannii Ab ATCC 17978                 1
14                 c1ccc2c(c1)[I+]c1ccccc1-2  A. baumannii Ab ATCC 17978                 1
15                          [O-][n+]1ccccc1S  A. baumannii Ab ATCC 17978                 1
16  Cn1cc(C2=C(c3cn(CCCSC(=N)N)c4ccccc34)C(=O)NC2=O)c2ccccc21 [EOS101001, BISINDOLYLMALEIMIDE IX]  A. baumannii Ab ATCC 17978                 0
17  CCN1/C(=C/c2ccc3ccccc3[n+]2CC)C=Cc2ccccc21  A. baumannii Ab ATCC 17978                 0
18  COc1cc(NCc2ccc3nc(N)nc(N)c3c2C)cc(OC)c1OC [EOS101467, TRIMETREXATE]  A. baumannii Ab ATCC 17978                 1
19  CN(C)c1ccc(C(=C2C=CC(=[N+](C)C)C=C2)c2ccc(N(C)C)cc2)cc1  A. baumannii Ab ATCC 17978                 1
20       Oc1c(Cl)cc(Cl)cc1Sc1cc(Cl)cc(Cl)c1O  A. baumannii Ab ATCC 17978                 1
21  C[C@@H]1CCO[C@H]2Cn3cc(C(=O)NCc4ccc(F)cc4F)c(=O)c(O)c3C(=O)N12  A. baumannii Ab ATCC 17978                 1
22  COc1cc(/C=C/C(O)=C/C(=O)/C=C/c2ccc(O)cc2)ccc1O  A. baumannii Ab ATCC 17978                 0
23  CC(C)(Cc1ccc2ccccc2c1)NC[C@@H](O)COc1cccc(Cl)c1C#N  A. baumannii Ab ATCC 17978                 1
24  C/C(=N\N=C(N)N)c1cc(NC(=O)CCCCCCCCC(=O)Nc2cc(/C(C)=N/N=C(N)N)cc(/C(C)=N/N=C(N)N)c2)cc(/C(C)=N/N=C(N)N)c1  A. baumannii Ab ATCC 17978                 1

Where do the numbers come from? From paper PMC12686454.
